System: UACC-62 melanoma
Test: NCI-60 one-dose screen, 48 h (100 = growth as untreated, 0 = no growth, -100 = all killed)
Details: 10 µM unless noted
Compounds without any hit were thinned out: in the full panel of roughly 83,000, 20% have a hit.
Please use yes whenever growth is not below 50%, and no whenever it is.

{"smiles representation": "Nc1nc(=O)n([C@H]2C[C@H](O)[C@@H](CO)O2)cc1C=O", "group": "yes"}
{"smiles representation": "O=C1/C(=C/c2cc(F)cc(F)c2)Cc2cc3c(cc21)OCO3", "group": "no"}
{"smiles representation": "C(=N\\Nc1nc(N/N=C/c2ccc3c(c2)OCO3)nc(N2CCCCC2)n1)/c1ccc2c(c1)OCO2", "group": "yes"}
{"smiles representation": "Nc1ccc(Nc2ncnc3sc4c(c23)CCN(Cc2ccccc2)C4)cc1", "group": "yes"}
